Test: Stability of cannabinoid compounds and Vitamin E components in Beverage 2 (AB Red) by LCMSMS
Type: physicochemical
Details: stored at 21-25° C., 360 days
Doc: threshold 3 µg/mL (exclusive). Items with Stability of Plant-Derived Cannabinoid Compounds in AB Red beneath it return criterion met; others return criterion not met.

Consider the following illustrative entries.
[[record]]
compound = "CCCCCc1cc(O)c2c(c1)OC(C)(CCC=C(C)C)C=C2 (stereo not drawn)"
label = "criterion met"

[[record]]
compound = "C=C(C)[C@@H]1CCC(C)=C[C@H]1c1c(O)cc(CCC)cc1O"
label = "criterion met"


Please determine if CCCCCc1cc(O)c2c(c1)OC(C)(C)[C@@H]1CCC(C)=C[C@@H]21 [D9 THC, delta-9-tetrahydrocannabinol, reference compound] is below 3 µg/mL in terms of Stability of Plant-Derived Cannabinoid Compounds in AB Red. criterion not met

Input `CCCCCc1cc(O)c2c(c1)OC(C)(C)c1ccc(C)cc1-2` ; condition: Stability of Plant-Derived Cannabinoid Compounds in AB Red strictly below 3 µg/mL. Does it hold? criterion met

Please state whether Stability of Plant-Derived Cannabinoid Compounds in AB Red is below 3 µg/mL for CCCCCc1cc(O)c2c(c1)OC1(C)CCC3C1C2C3(C)C (stereo not drawn) criterion met

Threshold test, Stability of Plant-Derived Cannabinoid Compounds in AB Red < 3 µg/mL: `CCCCCc1cc(O)c(C/C=C(\C)CCC=C(C)C)c(O)c1` criterion not met

Is Stability of Plant-Derived Cannabinoid Compounds in AB Red of `C=C(C)[C@@H]1CCC(C)=C[C@H]1c1c(O)cc(CCCCC)c(C(=O)O)c1O` strictly below 3 µg/mL? criterion met

Stability of Plant-Derived Cannabinoid Compounds in AB Red under 3 µg/mL? Item: CCCCCc1cc2c(c(O)c1C(=O)O)[C@@H]1C=C(C)CC[C@H]1C(C)(C)O2 [D9 THCA, delta-9-tetrahydrocannabinolic acid] criterion met

====

Assay: Stability of cannabinoid compounds and Vitamin E components in Beverage 2 (AB Red) by LCMSMS
Assay type: physicochemical
Settings: stored at 8° C., 8 days
Stability of Plant-Derived Cannabinoid Compounds in AB Red less than 2 µg/mL is yes; Stability of Plant-Derived Cannabinoid Compounds in AB Red greater than or equal to 2 µg/mL is no.

A selection of reference data follows.
[[record]]
compound = "C=C(C)[C@@H]1CCC(C)=C[C@H]1c1c(O)cc(CCC)cc1O"
label = "yes"

[[record]]
compound = "CCCCCc1cc(O)c2c(c1)OC(C)(CCC=C(C)C)C=C2 (stereo not drawn)"
label = "yes"


Bench note: check whether CCCCCc1cc(O)c2c(c1)OC(C)(C)[C@@H]1CCC(C)=C[C@@H]21 [D9 THC, delta-9-tetrahydrocannabinol, reference compound] shows Stability of Plant-Derived Cannabinoid Compounds in AB Red below 2 µg/mL no

A record lists CCCc1cc(O)c2c(c1)OC(C)(C)[C@@H]1CCC(C)=C[C@@H]21 [THCV, delta-9-tetrahydrocannabivarin] . Is its Stability of Plant-Derived Cannabinoid Compounds in AB Red below 2 µg/mL? no

Lab log: compare recorded Stability of Plant-Derived Cannabinoid Compounds in AB Red with 2 µg/mL; is it strictly lower for `CCCCCc1cc(O)c(C/C=C(\C)CCC=C(C)C)c(O)c1` ? no

Stability of Plant-Derived Cannabinoid Compounds in AB Red under 2 µg/mL? Item: `CCCCCc1cc(O)c2c(c1)OC(C)(C)c1ccc(C)cc1-2` no

Bench note: check whether `C=C(C)[C@@H]1CCC(C)=C[C@H]1c1c(O)cc(CCCCC)c(C(=O)O)c1O` shows Stability of Plant-Derived Cannabinoid Compounds in AB Red below 2 µg/mL yes

Take the compound CCCCCc1cc2c(c(O)c1C(=O)O)[C@@H]1C=C(C)CC[C@H]1C(C)(C)O2 [D9 THCA, delta-9-tetrahydrocannabinolic acid] and say whether its Stability of Plant-Derived Cannabinoid Compounds in AB Red is less than 2 µg/mL. yes

Hello, is Stability of Plant-Derived Cannabinoid Compounds in AB Red of the following compound strictly smaller than 2 µg/mL? CCCCCc1cc(O)c2c(c1)OC1(C)CCC3C1C2C3(C)C (stereo not drawn) yes
